For each record, write down the corresponding EC50.
Tested on: Xenopus laevis
METHOD SUMMARY: Anesthetic activity in Xenopus laevis tadpoles assessed as loss of righting reflexes
Format: functional, organism-based
PROTOCOL CONDITIONS: Tadpole
Enter the number, and then the unit.

So, `C=CC[C@]1(c2cccc(C3(C(F)(F)F)N=N3)c2)C(=O)NC(=O)N(C)C1=O` ? Its EC50 was 38 µM

So, CCCC(C)C1(CC)C(=O)NC(=O)NC1=O (stereo not drawn) ? Its EC50 was 65 µM

So, `C=CC[C@@]1(c2cccc(C3(C(F)(F)F)N=N3)c2)C(=O)NC(=O)N(C)C1=O` ? Its EC50 was 3.7 µM
